Reported values of DC50 for individual entries
- MEASUREMENT TARGET: HPK1 (Homo sapiens, UniProt Q92918)
- Construct: A HiBiT tag was introduced by CRISPR on the N terminus of HPK1 in Jurkat cells; host or cells: Jurkat cells (ATCC TIB-152), monoclonal line with CRISPR knock-in of HiBiT at the endogenous HPK1 locus
- Sequence (Q92918 whole entry): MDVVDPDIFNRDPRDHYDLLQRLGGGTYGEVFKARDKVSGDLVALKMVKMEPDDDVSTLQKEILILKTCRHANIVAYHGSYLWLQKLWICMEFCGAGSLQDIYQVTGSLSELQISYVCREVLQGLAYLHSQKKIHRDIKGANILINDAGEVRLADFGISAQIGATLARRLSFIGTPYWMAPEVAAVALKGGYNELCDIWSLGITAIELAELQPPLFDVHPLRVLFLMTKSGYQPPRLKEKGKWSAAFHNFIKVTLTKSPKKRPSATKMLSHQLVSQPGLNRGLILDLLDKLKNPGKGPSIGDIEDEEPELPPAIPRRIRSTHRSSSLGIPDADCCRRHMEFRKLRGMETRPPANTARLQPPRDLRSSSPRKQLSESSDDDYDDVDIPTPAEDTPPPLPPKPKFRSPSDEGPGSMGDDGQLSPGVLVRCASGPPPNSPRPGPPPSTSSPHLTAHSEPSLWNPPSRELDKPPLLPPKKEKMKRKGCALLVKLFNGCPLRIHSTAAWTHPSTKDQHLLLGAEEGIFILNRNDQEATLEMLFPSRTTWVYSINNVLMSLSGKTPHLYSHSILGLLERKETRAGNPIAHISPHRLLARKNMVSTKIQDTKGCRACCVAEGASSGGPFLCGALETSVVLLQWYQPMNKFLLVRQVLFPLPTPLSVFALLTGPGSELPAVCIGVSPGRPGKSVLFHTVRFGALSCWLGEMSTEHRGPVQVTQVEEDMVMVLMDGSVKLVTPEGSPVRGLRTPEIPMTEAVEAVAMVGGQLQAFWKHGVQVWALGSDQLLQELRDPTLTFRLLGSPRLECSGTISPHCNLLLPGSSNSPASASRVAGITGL
- ASSAY DETAILS: HPK1 Cellular HiBit Degradation Assay
- Type: cell-based
- TEST CONDITIONS: HiBiT HPK1 Jurkat cells, 24 hrs; concentration at which 50% of HPK1 was remaining; read-out: DC50 Category

COMPOUND	DC50
CC(C)n1cnc2cc(-c3ccc4c(c3)N([C@H]3C[C@@H](N5CCCCC5)C3)C(=O)C43CCN(C(=O)C4CCN(C(=O)C5CCN(c6ncc(C7CCC(=O)NC7=O)cn6)CC5)CC4)CC3)nc(NC3CC3)c21 (mixture of isomers) [Example 89]	0.1 to 0.5 µM
CC(C)n1cnc2cc(-c3ccc4c(c3)N([C@H]3C[C@@H](N5CCCCC5)C3)C(=O)C43CCN(C(=O)C4(C)CCN(C(=O)[C@H]5CC[C@H](N(C)c6ccc(C7CCC(=O)NC7=O)cc6)CC5)CC4)CC3)nc(NC3CC3)c21 (mixture of isomers) [Example 150]	0.1 to 0.5 µM
CC(C)n1cnc2cc(-c3ccc4c(c3)N([C@H]3C[C@@H](N5CCCCC5)C3)C(=O)C43CCN(C(=O)[C@]4(C)CCN(C(=O)C5CCN(c6ccc([C@@H]7CCC(=O)NC7=O)cc6)CC5)C4)CC3)nc(NC3CC3)c21 (racemic) [Example 244]	< 0.1 µM
CC(C)n1cnc2cc(-c3ccc4c(c3)N([C@H]3C[C@@H](N5CCOCC5)C3)C(=O)C43CCN(C(=O)C4(C)CCN(C(=O)C5CCN(c6ccc(C7CCC(=O)NC7=O)cn6)CC5)CC4)CC3)nc(NC3CC3)c21 (mixture of isomers) [Example 216]	0.1 to 0.5 µM
CC(C)n1cnc2cc(-c3ccc4c(c3)N([C@H]3C[C@@H](N5CCCCC5)C3)C(=O)C43CCN(C(=O)C4(C)CCN(CC5CCN(c6ccc(C7CCC(=O)NC7=O)cn6)CC5)CC4)CC3)nc(NC3CC3)c21 (mixture of isomers) [Example 225]	0.5 to 1 µM
CC(C)n1cnc2cc(-c3ccc4c(c3)N([C@H]3C[C@@H](N5CCCCC5)C3)C(=O)C43CCN(C(=O)C4CN(C(=O)C5CCN(c6ccc(C7CCC(=O)NC7=O)cn6)CC5)CC5(CCC5)C4)CC3)nc(NC3CC3)c21 (mixture of isomers) [Example 267]	< 0.1 µM
CC(C)n1cnc2cc(-c3ccc4c(c3)N([C@H]3C[C@@H](N5CC6CCC(C5)O6)C3)C(=O)C43CCN(C(=O)C4(C)CCN(C(=O)CC5CCN(c6ccc(C7CCC(=O)NC7=O)cn6)CC5)CC4)CC3)nc(NC3CC3)c21 (mixture of isomers) [Example 207]	0.5 to 1 µM
CC(C)n1cnc2cc(-c3ccc4c(c3)N([C@H]3C[C@@H](N5CCCCC5)C3)C(=O)C43CCN(C(=O)C4CCN(C(=O)[C@H]5CC[C@H](Nc6ccc(C7CCC(=O)NC7=O)cc6)CC5)CC4)CC3)nc(Nc3ccccc3F)c21 (mixture of isomers) [Example 54]	< 0.1 µM
CC(C)n1cnc2cc(-c3ccc4c(c3)N([C@H]3C[C@@H](N5CCCCC5)C3)C(=O)C43CCN(C(=O)[C@@H]4CCN(C(=O)[C@H]5CC[C@H](Oc6ccc(C7CCC(=O)NC7=O)cn6)CC5)C4)CC3)nc(NC3CCOCC3)c21 (mixture of isomers) [Example 19]	< 0.1 µM
CC(C)n1cnc2cc(-c3ccc4c(c3)N([C@H]3C[C@@H](N5CCCCC5)C3)C(=O)C43CCN(C(=O)C4CCN(C(=O)[C@H]5CC[C@H](Nc6cccc7c6C(=O)N(C6CCC(=O)NC6=O)C7=O)CC5)CC4)CC3)nc(NC3CC3)c21 (mixture of isomers) [Example 56]	0.5 to 1 µM
CC(C)n1cnc2cc(-c3ccc4c(c3)N([C@H]3C[C@@H](N5CCCCC5)C3)C(=O)C43CCN(C(=O)[C@]4(C)CCN(C(=O)C5CCN(c6ccc(C7CCC(=O)NC7=O)cc6F)CC5)C4)CC3)nc(NC3CC3)c21 (mixture of isomers) [Example 147]	0.1 to 0.5 µM
CC(C)n1cnc2cc(-c3ccc4c(c3)N([C@H]3C[C@@H](N5CCCCC5)C3)C(=O)C43CCN(C(=O)[C@@H]4CCN(C(=O)C5CCN(c6ccc(C7CCC(=O)NC7=O)cn6)CC5)[C@H](C)C4)CC3)nc(NC3CC3)c21 (mixture of isomers) [Example 245]	< 0.1 µM
CC(C)n1cnc2cc(-c3ccc4c(c3)N(C3CC(N5CCCCC5)C3)C(=O)C43CCN(C(=O)C4CCN(C(=O)C5CCN(c6ccc7c(c6)C(=O)N(C6CCC(=O)NC6=O)C7=O)CC5)CC4)CC3)nc(Nc3ccncc3F)c21 (racemic) [Example 88]	< 0.1 µM
CC(C)n1cnc2cc(-c3ccc4c(c3)N([C@H]3C[C@@H](N5CC6CCC(C5)O6)C3)C(=O)C43CCN(C(=O)C4(C)CCN(C(=O)C5CCN(c6ccc(C7CCC(=O)NC7=O)cn6)CC5)CC4)CC3)nc(NC3CC3)c21 (mixture of isomers) [Example 204]	0.1 to 0.5 µM
CC(C)n1cnc2cc(-c3ccc4c(c3)N([C@H]3C[C@@H](N5CCCCC5)C3)C(=O)C43CCN(C(=O)C4(C)CCN(C(=O)C5CCN(c6ccc(N7CCC(=O)NC7=O)cn6)CC5)CC4)CC3)nc(Nc3ccncc3F)c21 [Example 117]	< 0.1 µM
CC(C)n1cnc2cc(-c3ccc4c(c3)N([C@H]3C[C@@H](N5CCC(F)CC5)C3)C(=O)C43CCN(C(=O)C4(C)CCN(C(=O)C5CCN(c6ccc(C7CCC(=O)NC7=O)cn6)CC5)CC4)CC3)nc(NC3CC3)c21 (mixture of isomers) [Example 208]	0.1 to 0.5 µM
